Target: X-box-binding protein 1 (Homo sapiens)
Assay: ATG_Xbp1_CIS: Attagene CIS-FACTORIAL HepG2 Assay for human X-box Binding Protein 1 (XBP1) (AID 2282972)
Details: HepG2 XBP1 cis-element reporter, Attagene multiplex; actives raise or lower the signal
Active and inactive are the calls of the source. Rule for the calls: active = hit-call score of the fitted dose curve at least 0.9, where 1 is the maximum; inactive = score below 0.9.
Possible outcomes: active, inactive

[[record]]
molecule = "CCCCCCCCC=O"
assigned_label = "inactive"

[[record]]
molecule = "O=c1[nH]c(=O)n([C@H]2CCCO2)cc1F"
assigned_label = "inactive"

[[record]]
molecule = "CC(=O)C=CC1=C(C)CCCC1(C)C"
assigned_label = "inactive"

[[record]]
molecule = "O=[N+]([O-])c1ccc(Nc2ccc(Nc3ccccc3)c(S(=O)(=O)O)c2)c([N+](=O)[O-])c1"
assigned_label = "active"

[[record]]
molecule = "O=C(O)COCCN1CCN(C(c2ccccc2)c2ccc(Cl)cc2)CC1 (stereo unspecified)"
assigned_label = "inactive"

[[record]]
molecule = "CNC(=O)Oc1ccc2c(c1)[C@]1(C)CCN(C)[C@@H]1N2C"
assigned_label = "inactive"

[[record]]
molecule = "CC(=O)[O][Al][O]C(C)=O"
assigned_label = "inactive"

[[record]]
molecule = "CNC[C@H](O)c1cccc(O)c1"
assigned_label = "inactive"

[[record]]
molecule = "C=C(C)[C@@H]1CCC2=CC(=O)C[C@@H](C)[C@]2(C)C1"
assigned_label = "inactive"

[[record]]
molecule = "O=C[C@@H](O)[C@H](O)[C@H](O)CO"
assigned_label = "inactive"

[[record]]
molecule = "O=C[C@H](O)[C@H](O)[C@H](O)CO"
assigned_label = "inactive"

[[record]]
molecule = "COC(=O)Cc1cccc2ccccc12"
assigned_label = "inactive"

[[record]]
molecule = "C=C(C)C(=O)NCCCN(C)C"
assigned_label = "inactive"

[[record]]
molecule = "CC(=O)O[C@]1(C(C)=O)CC[C@H]2[C@@H]3C[C@H](C)C4=CC(=O)CC[C@]4(C)[C@H]3CC[C@@]21C"
assigned_label = "inactive"

[[record]]
molecule = "O=C(O)CN(CCN(CC(=O)O)CC(=O)O)CCN(CC(=O)O)CC(=O)O"
assigned_label = "inactive"

[[record]]
molecule = "Nc1nc2ccc([N+](=O)[O-])cc2s1"
assigned_label = "inactive"

